assay: aqueous solubility (compound added in increments to water until solubility was determined); assay type: physicochemical; conditions: in water

compound	solubility
CN(C)CC(=O)OCN1C(=O)NC(c2ccccc2)(c2ccccc2)C1=O [methanesulfonate]	> 100 mg/mL
